protocol-summary: Pharmacokinetic study in rats after oral administration of Epimedium extract (HPLC-MS/MS of plasma)
Format: in vivo, Male Sprague-Dawley rats
experimental-parameters: rat plasma, single oral dose of Epimedium extract 10 g/kg, n = 6, second peak
property: Tmax2
# include the unit after the value

These recorded examples may help you get a feel for the data.
COc1ccc(-c2oc3c(CC=C(C)C)c(O)cc(O)c3c(=O)c2O[C@@H]2O[C@@H](C)[C@H](O)[C@@H](O)[C@H]2O)cc1 [baohuoside I]	10.00 ± 1.79 h
COc1ccc2c(c1O)-c1c(O)c(OC)cc3c1[C@H](C2)[N+](C)(C)CC3 [magnoflorine]	10.67 ± 1.63 h
COc1ccc(-c2oc3c(CC=C(C)C)c(O)cc(O)c3c(=O)c2OC2OC(C)C(O)C(O)C2OC2OCC(O)C(O)C2O)cc1 (centres unmarked) [sagittatoside B]	11.00 ± 1.67 h

Tmax2 reported for this compound COc1ccc(-c2oc3c(CC=C(C)C)c(OC4OC(CO)C(O)C(O)C4O)cc(O)c3c(=O)c2OC2OC(C)C(O)C(O)C2OC2OC(C)C(O)C(O)C2O)cc1 (centres unmarked) [epimedin C] : 7.67 ± 0.75 h

Tmax2 reported for this compound COc1ccc(-c2oc3c(CC=C(C)C)c(OC4OC(CO)C(O)C(O)C4O)cc(O)c3c(=O)c2OC2OC(C)C(O)C(O)C2OC2OC(CO)C(O)C(O)C2O)cc1 (centres unmarked) [epimedin A] : 9.33 ± 0.94 h

Tmax2 reported for this compound COc1ccc(-c2oc3c(CC=C(C)C)c(O)cc(O)c3c(=O)c2O[C@@H]2O[C@@H](C)[C@H](O)[C@@H](O)[C@H]2O[C@@H]2O[C@H](CO)[C@@H](O)[C@H](O)[C@H]2O)cc1 [sagittatoside A] : 11.67 ± 0.82 h

Tmax2 reported for this compound COc1ccc(-c2oc3c(CC=C(C)C)c(OC4OC(CO)C(O)C(O)C4O)cc(O)c3c(=O)c2OC2OC(C)C(O)C(O)C2OC2OCC(O)C(O)C2O)cc1 (centres unmarked) [epimedin B] : 7.67 ± 0.75 h

Tmax2 reported for this compound CC(C)=CCc1c(O)cc(O)c2c(=O)c(OC3OC(C)C(O)C(O)C3O)c(-c3ccc(O)cc3)oc12 (centres unmarked) [baohuoside II] : 10.67 ± 1.03 h
